Biological target: eIF2B (Mus musculus, UniProt Q61749+Q99LD9)
Construct: endogenous complex in MIN-6 cells or their lysate; decamer α2β2δ2(γε)2; alpha subunit strongly depleted in N208Y cells (mostly octamer β2δ2γ2ε2); with Translation initiation factor eIF2B subunit alpha; Translation initiation factor eIF2B subunit gamma; Translation initiation factor eIF2B subunit epsilon
Sequence (Q99LD9 whole entry): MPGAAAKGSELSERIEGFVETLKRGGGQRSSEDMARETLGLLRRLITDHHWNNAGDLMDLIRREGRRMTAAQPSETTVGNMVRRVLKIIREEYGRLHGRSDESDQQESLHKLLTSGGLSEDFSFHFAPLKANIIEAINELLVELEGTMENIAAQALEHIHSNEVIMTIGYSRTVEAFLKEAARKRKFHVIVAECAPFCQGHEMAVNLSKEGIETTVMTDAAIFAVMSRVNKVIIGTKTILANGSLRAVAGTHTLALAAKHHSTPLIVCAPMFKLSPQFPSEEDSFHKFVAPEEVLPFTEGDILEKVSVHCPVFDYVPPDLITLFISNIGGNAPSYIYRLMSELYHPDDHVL
Sequence (Q61749 2-524): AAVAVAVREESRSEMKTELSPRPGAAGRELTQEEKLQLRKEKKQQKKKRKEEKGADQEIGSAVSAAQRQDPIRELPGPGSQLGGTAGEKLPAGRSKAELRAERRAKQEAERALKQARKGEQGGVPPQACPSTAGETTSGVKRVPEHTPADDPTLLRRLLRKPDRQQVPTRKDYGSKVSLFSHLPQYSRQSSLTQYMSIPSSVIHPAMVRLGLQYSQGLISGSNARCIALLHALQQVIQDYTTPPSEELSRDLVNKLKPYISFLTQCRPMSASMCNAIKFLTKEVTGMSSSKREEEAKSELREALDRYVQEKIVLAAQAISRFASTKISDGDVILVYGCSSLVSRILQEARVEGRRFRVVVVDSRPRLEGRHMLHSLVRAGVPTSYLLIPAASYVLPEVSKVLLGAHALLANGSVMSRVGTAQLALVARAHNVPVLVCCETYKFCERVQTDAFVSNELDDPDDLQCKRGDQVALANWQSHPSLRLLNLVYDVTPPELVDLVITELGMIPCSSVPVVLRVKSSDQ
Sequence (Q99LC8 whole entry N208Y partner): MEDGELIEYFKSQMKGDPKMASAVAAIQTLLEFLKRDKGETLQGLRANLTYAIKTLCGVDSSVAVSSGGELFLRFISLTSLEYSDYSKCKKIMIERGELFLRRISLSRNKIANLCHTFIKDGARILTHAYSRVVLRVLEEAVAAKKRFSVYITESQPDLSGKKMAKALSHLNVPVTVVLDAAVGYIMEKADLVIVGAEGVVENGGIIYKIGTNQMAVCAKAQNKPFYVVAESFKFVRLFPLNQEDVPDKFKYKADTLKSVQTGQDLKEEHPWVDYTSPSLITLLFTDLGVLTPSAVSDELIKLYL
Sequence (Q8CHW4 whole entry partner): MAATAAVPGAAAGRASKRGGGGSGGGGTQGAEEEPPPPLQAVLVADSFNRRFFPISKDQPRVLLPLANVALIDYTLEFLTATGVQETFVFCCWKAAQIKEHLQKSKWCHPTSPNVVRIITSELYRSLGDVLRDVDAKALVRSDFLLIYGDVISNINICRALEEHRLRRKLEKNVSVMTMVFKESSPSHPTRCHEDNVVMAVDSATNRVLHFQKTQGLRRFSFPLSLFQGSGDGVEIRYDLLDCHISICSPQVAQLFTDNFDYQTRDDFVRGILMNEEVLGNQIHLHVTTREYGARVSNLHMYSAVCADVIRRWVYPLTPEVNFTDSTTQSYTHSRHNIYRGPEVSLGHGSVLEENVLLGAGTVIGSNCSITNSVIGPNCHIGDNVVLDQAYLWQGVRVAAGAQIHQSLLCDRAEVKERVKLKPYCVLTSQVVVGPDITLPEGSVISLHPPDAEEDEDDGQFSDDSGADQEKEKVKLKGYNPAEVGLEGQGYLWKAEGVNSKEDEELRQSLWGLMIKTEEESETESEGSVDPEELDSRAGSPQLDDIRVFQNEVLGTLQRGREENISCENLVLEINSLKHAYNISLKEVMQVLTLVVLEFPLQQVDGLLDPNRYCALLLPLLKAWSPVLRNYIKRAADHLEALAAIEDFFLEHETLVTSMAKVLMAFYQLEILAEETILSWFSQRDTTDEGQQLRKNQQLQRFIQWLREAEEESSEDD
Test: 2BAct dose response in N208Y cells (read-out only in supplement)
Settings: activator, cell line not restated, read-out not told in main text
observable: pEC50
The value called pEC50 is obtained by taking minus log10 of the concentration in mol/L.

pEC50 reported for this molecule O=C(COc1ccc(Cl)c(F)c1)NC12CC(NC(=O)c3cnc(C(F)F)cn3)(C1)C2 : 7.56
